measured.on: Apelin receptor (Homo sapiens) (UniProt P35414)
Sequence (P35414 whole entry, looked up): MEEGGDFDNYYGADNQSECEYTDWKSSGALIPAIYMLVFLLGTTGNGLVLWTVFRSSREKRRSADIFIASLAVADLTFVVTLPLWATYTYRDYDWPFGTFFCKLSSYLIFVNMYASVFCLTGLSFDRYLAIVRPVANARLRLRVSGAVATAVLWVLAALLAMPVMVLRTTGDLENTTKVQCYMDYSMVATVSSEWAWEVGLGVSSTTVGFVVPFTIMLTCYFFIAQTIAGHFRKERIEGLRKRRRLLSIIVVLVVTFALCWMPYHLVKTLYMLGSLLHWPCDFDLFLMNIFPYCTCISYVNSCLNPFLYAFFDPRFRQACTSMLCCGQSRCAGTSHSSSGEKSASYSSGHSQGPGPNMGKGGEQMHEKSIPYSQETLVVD
protocol: apelin receptor inhibitor analogs – cell-based, luminescence, set 2, SAR follow-up (AID 488803)
test.conditions: CHO-K1 APJ PathHunter beta-arrestin, antagonist
The source made the active and inactive calls.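 The calls were made as follows: active = mean IC50 below 10 µM; inactive = the rest.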
Property: IC50; scope: individual compounds

Cc1c(O)ccc2c1OC1(CC2c2ccccc2Cl)CC(C)(C)NC(=S)N1 (centres undefined); > 79 µM (inactive)
CC(C)OC(=O)CN1C(=O)C(=O)c2ccccc21; > 79 µM (inactive)

stdin: Query (compound): `O=c1cc(CSc2ccccc2)occ1O` ; field requested: IC50
stdout: > 79 µM (inactive)

###

measured.on: Apelin receptor (Homo sapiens)
protocol: apelin receptor inhibitor analogs – cell-based, luminescence, set 2, SAR follow-up (AID 488803)
test.conditions: CHO-K1 APJ PathHunter beta-arrestin, antagonist
Calls of active or inactive are those of the source.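 The calls were made as follows: active = mean IC50 below 10 µM; inactive = the rest.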
Choose one outcome from this list and give only that: y (active), n (inactive)

Cc1ccnc(SCc2cccc(O)c2)n1; n
O=C(Oc1coc(CSc2ncccn2)cc1=O)c1ccc(-c2ccccc2)cc1; n
O=C(Oc1coc(CSc2ncccn2)cc1=O)c1cc([N+](=O)[O-])ccc1Cl; n
O=C(Oc1coc(CSc2ncccn2)cc1=O)c1ccccc1; n
Cc1cc(C)nc(SCc2cc(=O)c(OC(=O)c3ccc(C)c([N+](=O)[O-])c3)co2)n1; n

stdin: Please let me know the test result on file for `O=C(COC(=O)c1cccnc1)c1ccc(Cl)cc1` .
stdout: n

stdin: Please let me know the test result on file for `Cc1ccnc(SCc2cc(=O)c(OC(=O)c3ccc([N+](=O)[O-])cc3)co2)n1` .
stdout: y

stdin: Please let me know the test result on file for `C=CCOc1cccc(CSc2ncccn2)c1` .
stdout: n

stdin: Please let me know the test result on file for `C=CCOc1ccc(COc2ccccc2)cc1` .
stdout: n

Data provenance is PubChem BioAssay AID488803.
